- TEST PARAMETERS: in THF, 293.15 K
OUTCOME MEASURE: solubility (mole fraction)

C[C@]12CCC3=C4CCC(=O)C=C4CC[C@H]3[C@@H]1CC[C@@]2(O)CC#N = 0.0148

====

- TEST PARAMETERS: in ethyl acetate, 278.15 K
OUTCOME MEASURE: solubility (mole fraction)

C[C@]12CCC3=C4CCC(=O)C=C4CC[C@H]3[C@@H]1CC[C@@]2(O)CC#N = 0.00167

====

- TEST PARAMETERS: in n-propanol, 273.15 K
OUTCOME MEASURE: solubility (mole fraction)

C[C@]12CCC3=C4CCC(=O)C=C4CC[C@H]3[C@@H]1CC[C@@]2(O)CC#N = 0.00136

====

- TEST PARAMETERS: in n-propanol, 288.15 K
OUTCOME MEASURE: solubility (mole fraction)

C[C@]12CCC3=C4CCC(=O)C=C4CC[C@H]3[C@@H]1CC[C@@]2(O)CC#N = 0.00219

====

- TEST PARAMETERS: in ethanol, 273.15 K
OUTCOME MEASURE: solubility (mole fraction)

C[C@]12CCC3=C4CCC(=O)C=C4CC[C@H]3[C@@H]1CC[C@@]2(O)CC#N = 0.000981

====

- TEST PARAMETERS: in ethyl acetate, 303.15 K
OUTCOME MEASURE: solubility (mole fraction)

C[C@]12CCC3=C4CCC(=O)C=C4CC[C@H]3[C@@H]1CC[C@@]2(O)CC#N = 0.00304

====

- TEST PARAMETERS: in THF, 273.15 K
OUTCOME MEASURE: solubility (mole fraction)

C[C@]12CCC3=C4CCC(=O)C=C4CC[C@H]3[C@@H]1CC[C@@]2(O)CC#N = 0.0106

====

- TEST PARAMETERS: in ethanol, 288.15 K
OUTCOME MEASURE: solubility (mole fraction)

C[C@]12CCC3=C4CCC(=O)C=C4CC[C@H]3[C@@H]1CC[C@@]2(O)CC#N = 0.00189

====

- TEST PARAMETERS: in water, 283.15 K
OUTCOME MEASURE: solubility (mole fraction)

C[C@]12CCC3=C4CCC(=O)C=C4CC[C@H]3[C@@H]1CC[C@@]2(O)CC#N = 6.99e-06

====

- TEST PARAMETERS: in MTBE, 293.15 K
OUTCOME MEASURE: solubility (mole fraction)

C[C@]12CCC3=C4CCC(=O)C=C4CC[C@H]3[C@@H]1CC[C@@]2(O)CC#N = 0.000355

====

- TEST PARAMETERS: in acetone, 298.15 K
OUTCOME MEASURE: solubility (mole fraction)

C[C@]12CCC3=C4CCC(=O)C=C4CC[C@H]3[C@@H]1CC[C@@]2(O)CC#N = 0.00667

====

- TEST PARAMETERS: in n-propanol, 278.15 K
OUTCOME MEASURE: solubility (mole fraction)

C[C@]12CCC3=C4CCC(=O)C=C4CC[C@H]3[C@@H]1CC[C@@]2(O)CC#N = 0.00161

====

- TEST PARAMETERS: in THF, 308.15 K
OUTCOME MEASURE: solubility (mole fraction)

C[C@]12CCC3=C4CCC(=O)C=C4CC[C@H]3[C@@H]1CC[C@@]2(O)CC#N = 0.0182
